- Target desc: human Bradykinin B1 receptor (Homo sapiens, UniProt P46663)
- Construct: host or cells: CHO-K1
- Sequence (P46663 whole entry): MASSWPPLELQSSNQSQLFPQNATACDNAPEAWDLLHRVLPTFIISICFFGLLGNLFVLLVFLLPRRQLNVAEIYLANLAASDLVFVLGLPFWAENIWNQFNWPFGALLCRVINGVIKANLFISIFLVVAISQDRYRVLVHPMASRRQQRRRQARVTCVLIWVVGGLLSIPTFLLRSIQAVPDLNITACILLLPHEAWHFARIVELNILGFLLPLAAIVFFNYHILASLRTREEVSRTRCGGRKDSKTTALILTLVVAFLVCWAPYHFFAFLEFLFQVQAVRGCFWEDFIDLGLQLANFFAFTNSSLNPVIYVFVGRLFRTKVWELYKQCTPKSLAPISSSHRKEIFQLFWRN
- Assay overview: Calcium flux Assay (FLIPR) with recombinant CHO-K1 cells expressing human Bradykinin B1 receptor, in presence (hB1 IC50) or absence (hB1 free IC50) of 0.1% BSA
- Assay type: cell-based
- Reported conditions: in presence of 0.1% BSA, read-out: hB1 IC50
# if measured IC50 < 50 nM: yes (1)  # else: no (0)

Before answering, review these 2 worked examples.
COc1ccc(-c2ccc(NC(=O)C3(c4ccccc4Cl)CC3)cc2-c2nnn[nH]2)cc1OC: no (0)
CCOc1ccc(-c2ccc(NC(=O)C3(c4ccc(Cl)cn4)CC3)cc2-c2nnn[nH]2)cn1: no (0)

Record `CCOc1ccc(-c2ccc(NC(=O)C3(c4cccc(C(F)(F)F)c4)CC3)cc2-c2nnn[nH]2)cc1OC` : is its IC50 strictly below 50 nM?
yes (1)

Find out if reported IC50 for `CC(C)Oc1ccc(-c2ccc(NC(=O)C3(c4ccc(C(F)(F)F)cc4)CC3)cc2-c2nnn[nH]2)cn1` is less than 50 nM
yes (1)

Does the reported IC50 of `CN1CCN(c2ccc(-c3ccc(NC(=O)C4(c5cccc(Cl)c5)CC4)cc3-c3nnn[nH]3)cc2)CC1` stay below 50 nM?
no (0)

Input `CCCc1cccc(C2(C(=O)Nc3ccc(-c4ccc(OC)c(OC)c4)c(-c4nnn[nH]4)c3)CC2)c1` ; condition: IC50 strictly below 50 nM. Does it hold?
no (0)

---

I'd be grateful if you could share measured log10 of IC50 for these entries.
- Target desc: human Bradykinin B1 receptor (Homo sapiens, UniProt P46663)
- Construct: host or cells: CHO-K1
- Assay overview: Calcium flux Assay (FLIPR) with recombinant CHO-K1 cells expressing human Bradykinin B1 receptor, in presence (hB1 IC50) or absence (hB1 free IC50) of 0.1% BSA
- Format: cell-based
- Reported conditions: in presence of 0.1% BSA, read-out: hB1 IC50
Recorded IC50 (log10, nM)

CCCOc1ccc(-c2ccc(NC(=O)C3(c4cccc(Cl)c4)CC3)cc2-c2nnn[nH]2)cn1: 1.10
COc1ccc(-c2ccc(NC(=O)C3(c4ccc(F)cc4)CC3)cc2-c2nnn[nH]2)cc1OC: 1.63
CCOc1ccc(-c2ccc(NC(=O)C3(c4ccc(C(F)(F)F)cc4)CC3)cc2-c2nnn[nH]2)cc1OC: 1.45
CCOc1ccc(-c2ccc(NC(=O)C3(c4cccc(C)c4)CC3)cc2-c2nnn[nH]2)cn1: 1.38
N#Cc1ccc(-c2ccc(NC(=O)C3(c4cccc(Cl)c4)CC3)cc2-c2nnn[nH]2)cn1: 2.55
CCOc1ccc(-c2ncc(NC(=O)C3(c4cccc(Cl)c4)CC3)cc2-c2nnn[nH]2)cn1: 1.88

List log10 of IC50 for every entry below, keeping the order given.
1. CCOc1ncc(-c2ccc(NC(=O)C3(c4ccc(F)cc4F)CC3)cc2-c2nnn[nH]2)cc1C
2. COc1ccc(C2(C(=O)Nc3ccc(-c4ccc(OC)c(OC)c4)c(-c4nnn[nH]4)c3)CC2)cc1
3. CCOc1ccc(-c2ccc(NC(=O)C3(c4cccc(Cl)c4)CCC3)cc2-c2nnn[nH]2)cn1
4. COc1ccc(-c2ccc(NC(=O)C3(c4cccc(C(C)(C)C)c4)CC3)cc2-c2nnn[nH]2)cc1OC

1: 1.77; 2: 2.26; 3: 3.15; 4: 2.87

State recorded log10 of IC50 for all listed compounds.
1. COc1ccc(-c2ccc(NC(=O)C3(c4c(F)cccc4F)CC3)cc2-c2nnn[nH]2)cc1OC
2. COc1ccc(-c2ccc(NC(=O)C3(c4ccccc4C)CC3)cc2-c2nnn[nH]2)cc1OC
3. COc1ccc(-c2ccc(NC(=O)C3(c4ccccc4F)CC3(C)C)cc2-c2nnn[nH]2)cc1OC (centres unmarked)
4. COc1ccc(-c2ccc(NC(=O)C3(c4ccc(F)c(F)c4)CC3)cc2-c2nnn[nH]2)cc1OC
5. CCc1ccc(-c2ccc(NC(=O)C3(c4cccc(Cl)c4)CC3)cc2-c2nnn[nH]2)cn1
6. COc1ccc(-c2ccc(NC(=O)C3(c4ccc(C)cc4)CC3)cc2-c2nnn[nH]2)cc1OC
7. Cn1ncc2ccc(-c3ccc(NC(=O)C4(c5cccc(Cl)c5F)CC4)cc3-c3nnn[nH]3)cc21
8. CCOc1ncc(-c2ccc(NC(=O)C3(c4cccc(Cl)c4F)CC3)cc2-c2nnn[nH]2)cc1C(F)(F)F

1. 2.22
2. 3.26
3. 2.54
4. 1.76
5. 1.31
6. 1.70
7. 1.67
8. 2.77

Could I get log10 of IC50 for every one of these entries?
1. COc1ccc(-c2ccc(NC(=O)C3(c4cc(Cl)ccc4F)CC3)cc2-c2nnn[nH]2)cc1OC
2. CCOc1ccc(-c2ccc(NC(=O)C3(c4ccc(OC(F)(F)F)cc4)CC3)cc2-c2nnn[nH]2)cn1
3. O=C(Nc1ccc(-c2ccc(OCC(F)(F)F)nc2)c(-c2nnn[nH]2)c1)C1(c2cccc(Cl)c2)CC1
4. CCOc1cncc(-c2ccc(NC(=O)C3(c4ccc(F)cc4F)CC3)cc2-c2nnn[nH]2)c1

[1.84, 1.27, 2.28, 2.15]

Batch of 4 compounds: report log10 of IC50 for each.
1. COc1ccc(-c2ccc(NC(=O)C3(c4cccc(OC(F)F)c4)CC3)cc2-c2nnn[nH]2)cc1OC
2. CCOc1ccc(-c2ccc(NC(=O)C3(c4ccc(F)c(OC)c4)CC3)cc2-c2nnn[nH]2)cn1
3. CCOc1cncc(-c2ccc(NC(=O)C3(c4ccc(C(F)(F)F)cc4)CC3)cc2-c2nnn[nH]2)c1
4. COc1ccc(-c2ccc(NC(=O)C3(CC4CCCCC4)CC3)cc2-c2nnn[nH]2)cc1OC

2.33
1.94
1.44
2.74
